- TARGET_UNDER_TEST: T1, human mature TGFβ3 (Homo sapiens, UniProt P10600)
- T1 construct: Transforming Growth Factor-beta 3, human, mature form (cut from the precursor); also called TGFb3; source: bought: PeproTech
- ASSAY_DETAILS: SPR; Biacore T200; antibody captured on a Protein A sensor chip (about 90 RU); mature TGFβ isoform injected, five-fold dilutions 0.008 nM to 5 nM; HBS-EP pH 7.4, 150 mM NaCl; 37 °C; 100 μl/min; 3 min association, 60 min dissociation; one-to-one Langmuir model, global fit
- ASSAY_CONDITIONS: both partners purified
Kd values, listed per item
Enter your answer as a number in pM; do not include the unit.

Here are 2 binders together with their reported answers.
h4A11.v7.5 (antibody, V domains shown, as the VH of m12 (h4A11.v7); numbers count on: Kabat numbering of the heavy chain; as the VL of m12 (h4A11.v7); human IgG1; also called v7.5_S19R, S79W, K81Q; source: Expi293F, transient, purified (Protein A, SEC)) VH: EQQLQESGPGLVKPSETLRLTCTVTGFSLSSYTVNWVRQPAGKGLEWIGYISYGGSAYYASWANGRFTISKDSSKNQVWLQLSSVTAADTAVYFCARHMQVGGAPTGSMAAFDPWGPGTLVTVSS VL: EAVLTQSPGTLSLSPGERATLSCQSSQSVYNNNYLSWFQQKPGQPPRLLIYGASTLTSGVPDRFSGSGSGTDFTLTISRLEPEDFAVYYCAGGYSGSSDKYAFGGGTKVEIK ... 7.2
h4A11.v2.1 (antibody, V domains shown, as the VH of m7 (h4A11.v2) with the stated change; numbers count on: Kabat numbering of the heavy chain; as the VL of m7 (h4A11.v2); human IgG1; also called v2.1_R19S; source: Expi293F, transient, purified (Protein A, SEC)) VH: EQQLVESGGGLVQPGGSLSLSCAVSGFSLSSYTVNWVRQAPGKGLEWIGYISYGGSAYYASWANGRFTISKDSAKNSVYLQMNSLRAEDTAVYFCARHMQVGGAPTGSMAAFDPWGPGTLVTVSS VL: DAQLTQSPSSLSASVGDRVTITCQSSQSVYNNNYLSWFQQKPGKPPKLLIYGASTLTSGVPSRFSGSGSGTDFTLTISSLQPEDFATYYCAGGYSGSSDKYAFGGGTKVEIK ... 0.6

Then there is this binder:
Look up Kd: h4A11.v7.1 (antibody, V domains shown, as the VH of m12 (h4A11.v7); numbers count on: Kabat numbering of the heavy chain; as the VL of m12 (h4A11.v7); human IgG1; also called v7.1_S19R, S79Y; source: Expi293F, transient, purified (Protein A, SEC)) VH: EQQLQESGPGLVKPSETLRLTCTVTGFSLSSYTVNWVRQPAGKGLEWIGYISYGGSAYYASWANGRFTISKDSSKNQVYLKLSSVTAADTAVYFCARHMQVGGAPTGSMAAFDPWGPGTLVTVSS VL: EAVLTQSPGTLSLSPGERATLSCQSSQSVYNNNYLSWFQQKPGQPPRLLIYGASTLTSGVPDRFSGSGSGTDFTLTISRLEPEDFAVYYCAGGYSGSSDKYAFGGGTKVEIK 40.5
